assay: In vivo pharmacokinetic study in CD-1 mice; conditions: male, mouse, single oral gavage dose of 10 mg/kg, plasma
MEASURE: half-life (h)

structure_as_smiles=COC(=O)c1c(N)c2ccc(OC(F)(F)F)cc2n(-c2ccc(N)cc2)c1=O numeric_readout=16.5
structure_as_smiles=COC(=O)c1c(N)c2ccc(I)cc2n(-c2cccc3cnccc23)c1=O numeric_readout=2.98
structure_as_smiles=COC(=O)c1c(N)c2ccc(Br)cc2n(-c2ccc(N)nc2)c1=O numeric_readout=4.09
structure_as_smiles=COC(=O)c1c(N)c2ccc(Br)cc2n(-c2ccc(C)nc2)c1=O numeric_readout=2.53

(A) COC(=O)c1c(N)c2ccc(C(F)(F)F)nc2n(-c2ccc(N)cc2Cl)c1=O
(B) COC(=O)c1c(N)c2ccc(C(F)(F)F)nc2n(-c2cccc3cnccc23)c1=O
Which entry has a larger number for half-life, A or B ? Reply with the label of the item you choose.
A

(a) COC(=O)c1c(N)c2ccc(Cl)cc2n(-c2ccccc2)c1=O
(b) COC(=O)c1c(N)c2ccc(C(F)(F)F)cc2n(-c2cccc3cnccc23)c1=O
Given the two records a and b , choose the one whose half-life value is lower. Reply with the label of the item you choose.
b
